What pre-steady-state target cleavage rate was measured for each of the following?
# Tested on: MILI (PIWIL2) piRISC loaded with piRNA #1 (26 nt);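 also: 1 nM active piRISC with 0.1 nM target library at 33 °C single turnover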
# method notes: pre-steady-state target cleavage rate (min^-1); guide: piRNA #1 5'p-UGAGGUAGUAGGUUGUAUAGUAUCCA; higher = faster piRNA-guided slicing of the target
# conditions used: auxiliary factor: 500 nM mouse GTSF1
Numbers only.

Example results:
| biopolymer sequence | pre-steady-state target cleavage rate |
| --- | --- |
| GGAGACCUAAAUAUACAACCUACUACCUCA | 0.0318 |
| GGAGACCUAACGUAUACAACCUACUACCUCA | 0.0292 |
| GGAGACCUAUGAUUACAACGUACAACCUCA | 0.00532 |

I have 8 sequences here; please give me pre-steady-state target cleavage rate for each one.
1. GGAGACCUUACUAUACAACCUACUACUUCA
2. GGAGUGGAUAGUAUACUACCUACUACCUCA
3. GGAGAGGAUACUAUAGAACCUACUACCUCA
4. GGAGUGGAUACUAUACAACCUACUACCUUCA
5. GGAGACCUAAGUAUACAAGCUACUACCUCA
6. GGAGUGCAUACUAUACAACCUACUACCUGA
7. GGAGACCUUACUAUACUACCUACUACGUCA
8. GGAGACCAUACUAUUCAACCUACUACGUCA

Reply text:
1: 0.116; 2: 0.113; 3: 0.166; 4: 0.128; 5: 0.124; 6: 0.09; 7: 0.0704; 8: 0.0881

I have 5 sequences here; please give me pre-steady-state target cleavage rate for each one.
1. GGAGACCAUACUAUAUAACCUACUACCUCA
2. GGAGAGGAUACUAUACAACCUUCUACCUCA
3. GGAGAGGAUAGUAAACAACCUACUACCUCA
4. GGAGACGAUACUAUACAACCUACCUACCUCA
5. GGAGACCAUACUUUACAACCUACUACCUCA

Reply text:
0.155
0.0114
0.0497
0.131
0.168

I have 2 sequences here; please give me pre-steady-state target cleavage rate for each one.
1. GGAGAGGAUACUAUACAACAUACUACCUCA
2. GGAGACCAUACUAUACAACCAACUUCCUCA

Reply text:
1: 0.0488; 2: 0.00585

I have 2 sequences here; please give me pre-steady-state target cleavage rate for each one.
1. GGAGACGAAACUAUAGAACCUACUACCUCA
2. GGAGACCUAUCUAUACUACCUACUAGCUCA

Reply text:
[0.146, 0.0698]

I have 2 sequences here; please give me pre-steady-state target cleavage rate for each one.
1. GGAGACCUAUCUAAACAACCUAGUACCUCA
2. GGAGACCUUACAAUACAACCUACUACCACA

Reply text:
[0.0109, 0.133]

I have 6 sequences here; please give me pre-steady-state target cleavage rate for each one.
1. GGAGACCUAUGAAUACAAGCUACUUCCUCA
2. GGAGACCUAUGAAUACUACCUACUAGCUCA
3. GGAGACGAUACUAUACAACCUACAUGCUCA
4. GGAGACGAUACUAAACAACGUACUACCUCA
5. GGAGACCUUAUCUAUACAACCUACUACCUCA
6. GGAGACCUAUGAUUACAAGCUACUACCUGA

Reply text:
0.0166
0.00378
0.0563
0.017
0.115
0.0183

I have 6 sequences here; please give me pre-steady-state target cleavage rate for each one.
1. GGAGACCUAACUAUACAAACUACUACCUCA
2. GGAGAGGAUACUAUACAACCAACUACCUCA
3. GGAGACCAAACUAUACAACGUACUACCUCA
4. GGAGUGGAUAGUAUACAACCAACUACCUCA
5. GGAGUGGAUACUAUACAACCUACAUCCUCA
6. GGAGACCUUACUAUACAACCUACUUGGAGA [g7:g22:cont:t1A]

Reply text:
1. 0.248
2. 0.00747
3. 0.0124
4. 0.0064
5. 0.00356
6. 0.00375

I have 5 sequences here; please give me pre-steady-state target cleavage rate for each one.
1. GGAGACCUAUCUAUACAACCUACUAGCUGA
2. GGAGACCUAACAAUACAAGCUACUACCUCA
3. GGAGAGCAUACAAUACAACCUACUACCUCA
4. GGAGACCUAAGUAUACAACCUAGUACCUCA
5. GGAGACCUAUCUAUACAACCUACUUCGUCA

Reply text:
[0.00493, 0.22, 0.206, 0.0133, 0.0271]

###

# System: EfPiwi piRISC loaded with L1MC piRNA (26 nt)
# method notes: pre-steady-state target cleavage rate (min^-1); auxiliary factor: 500 nM Ephydatia muelleri Gtsf1; guide: L1MC piRNA 5'p-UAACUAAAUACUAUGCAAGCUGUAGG; higher = faster piRNA-guided slicing of the target
condition met means recorded pre-steady-state target cleavage rate is 0.005 or above; condition not met means it is below 0.005.

Please review the following examples before continuing.
| biopolymer sequence | assigned category |
| --- | --- |
| UCCUGGUACGCUUGCAUAGUAUUUAGUUA | condition met |
| UCCUGGUAGAGCUUGCAUAGUAUUUUGUUA | condition not met |
| UCCUGGAUCAGCUAGCAAAGUAUUUAGUUA | condition not met |
| UCCUGCAAGAGCUUGCAUAGUAUUUAGUUA | condition met |
| UCCUGGUACAGCUUGCAUAGUAUAAAGUAA | condition not met |

Inquiry: Hi team, for UCCUCCUACAGCUUGGUUAGUAUUUAGUAA , is the recorded pre-steady-state target cleavage rate at or above 0.005?
Reply text: condition met

Inquiry: Hi team, for UCCUGGAUGAGCUAGCAUAGUAUUUUGUUA , is the recorded pre-steady-state target cleavage rate at or above 0.005?
Reply text: condition not met

Inquiry: Hi team, for UCCUGGAUGUGCAUGCAUAGUAUUUAGAAA , is the recorded pre-steady-state target cleavage rate at or above 0.005?
Reply text: condition not met

Inquiry: Hi team, for UCCUGGAUGAGCUUGCAUAAUAUUUAGUUA , is the recorded pre-steady-state target cleavage rate at or above 0.005?
Reply text: condition met

###

# Tested on: EfPiwi piRISC loaded with L1MC piRNA (26 nt)
# method notes: pre-steady-state target cleavage rate (min^-1); auxiliary factor: 500 nM Ephydatia muelleri Gtsf1; guide: L1MC piRNA 5'p-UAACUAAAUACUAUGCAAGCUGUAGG; higher = faster piRNA-guided slicing of the target
Yes means recorded pre-steady-state target cleavage rate is 0.005 or above; No means it is below 0.005.

Please review the following examples before continuing.
| biopolymer sequence | assigned category |
| --- | --- |
| UCCUGCUACAGCUAGCAUAGAAUUUAGUUA | No |
| UCCUGGUACAGCUUGCAUAGUAUUUAGUAUA | Yes |

Inquiry: Hi team, for UCCUGCUACAGCUUGCAUAGUAUUAUAGUUA , is the recorded pre-steady-state target cleavage rate at or above 0.005?
Reply text: Yes

###

# Tested on: MILI (PIWIL2) piRISC loaded with piRNA #1 (26 nt);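 also: 1 nM active piRISC with 0.1 nM target library at 33 °C single turnover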
# method notes: pre-steady-state target cleavage rate (min^-1); guide: piRNA #1 5'p-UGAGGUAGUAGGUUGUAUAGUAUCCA; MIWI and MILI are mouse PIWI proteins and EfPiwi is from a freshwater sponge; tags in brackets are library labels; higher = faster piRNA-guided slicing of the target
# conditions used: auxiliary factor: 500 nM mouse GTSF1
What pre-steady-state target cleavage rate was measured for each of the following?
Numbers only.

Example results:
| biopolymer sequence | pre-steady-state target cleavage rate |
| --- | --- |
| GGAGUGGAUAUAUACAACCUACUACCUCA | 0.152 |
| GGAGACCUAUGAAAACAACCUACUACCUCA | 0.0037 |
| GGAGACCUAUGAAUACAACCUACUCCCUCA | 0.00391 |
| GGAGACCUAUCUAUACAACCUAAUACCUCA | 0.0234 |
| GGAGACCUAUCUAUACAACCUUCUACGUCA | 0.00428 |

I have 2 sequences here; please give me pre-steady-state target cleavage rate for each one.
1. GGAGACCUUACUAUUCAACCUAGUACCUCA
2. GGAGACCAUAGUAUAGAACCUACUACCUCA

Reply text:
1. 0.0486
2. 0.105

I have 3 sequences here; please give me pre-steady-state target cleavage rate for each one.
1. GGAGACGAUACUAUACAAGCUACUACCUCA
2. GGAGACCUAUGAUAUCAACCUACAACCUCA
3. GGAGACCAUACUAUACAACCUAACUACCUCA

Reply text:
[0.269, 0.00288, 0.0248]

I have 8 sequences here; please give me pre-steady-state target cleavage rate for each one.
1. GGAGACCUAUGUAUACAACCUACUCACCUCA
2. GGAGACCAUACUAUACAACGUACUAGCUCA
3. GGAGUGGAUAGUAUACAACCUACUACCACA
4. GGAGACCUAUGAUUAGCAACCUACUACCUCA
5. GGAGACCUAACUAUACACCCUACUACCUCA
6. GGAGACCAUACUAAACAACCUACUUCCUCA
7. GGAGACCUAUCUAUACAACCUACAACCUCA
8. GGAGACCUUACUAAACAACCUACAACCUCA

Reply text:
1. 0.0823
2. 0.00786
3. 0.0277
4. 0.00597
5. 0.0388
6. 0.068
7. 0.0886
8. 0.178

I have 5 sequences here; please give me pre-steady-state target cleavage rate for each one.
1. GGAGACCAUACUAUACAAACCUACUACCUCA
2. GGAGACCUAUGAUUACAACGUACUACCUCA
3. GGAGACCUAUGAAUGCAACCUACUACCUCA
4. GGAGACGAUACUAUACAAGGUACUACCUCA
5. GGAGACCUUACUAUAGAACCUACUACGUCA

Reply text:
0.0045
0.00443
0.00733
0.0884
0.0503

I have 6 sequences here; please give me pre-steady-state target cleavage rate for each one.
1. GGAGUGGAUACUAUACAACCAAGUACCUCA
2. GGAGUCGAUUCUAUACAACCUACUACCUCA
3. GGAGUGCAUACUUUACAACCUACUACCUCA
4. GGAGACGAUACUAUUCAACCUACUUCCUCA
5. GGAGACCAUACUAUACAACCUACUACUUCA
6. GGAGACCUUACUAUACAACCUAGUACCACA

Reply text:
[0.00277, 0.182, 0.166, 0.0306, 0.189, 0.00907]

I have 6 sequences here; please give me pre-steady-state target cleavage rate for each one.
1. GGAGACCAUACUAUACAACCUACUUGCUCA
2. GGAGACCUAUCUAACAACCUACUACCUCA
3. GGAGACCUAUGUAUACAACCUACUACCUCC [g2:g19:cont:t1C]
4. GGAGACCUAACUAUACAAGCAACUACCUCA
5. GGAGACCAUACUAUACUACCUACUACGUCA
6. GGAGACGAUAGUAUACAACCUACAACCUCA

Reply text:
1. 0.13
2. 0.0222
3. 0.0539
4. 0.00654
5. 0.104
6. 0.106

I have 4 sequences here; please give me pre-steady-state target cleavage rate for each one.
1. GGAGACGAUACGUAUACAACCUACUACCUCA
2. GGAGAGGGUACUAUACAACCUACUACCUCA
3. GGAGAGGAAACUAAACAACCUACUACCUCA
4. GGAGACCUAUGAAUACAAGGUACUACCUCA

Reply text:
1: 0.107; 2: 0.145; 3: 0.229; 4: 0.00378

I have 4 sequences here; please give me pre-steady-state target cleavage rate for each one.
1. GGAGACUAUACUAUACAACCUACUACCUCA
2. GGAGAGGAUACUAUACAACGCUACUACCUCA
3. GGAGACGAUACAAUACAACCUACUAGCUCA
4. GGAGUGGAUACUAAACAACCUACUACGUCA

Reply text:
1: 0.171; 2: 0.00299; 3: 0.137; 4: 0.0421

Data credit: the supplement of paper PMC10338343
